- Tested on: NCI-H460
- EXPERIMENT_SUMMARY: relative viability (nuclei count vs DMSO), 5 days (fraction); higher = more cells survive
- MEASUREMENT_PARAMETERS: first compound 0.8 µM
Strictly below 0.5 in relative viability: Condition met. Otherwise: Condition not met.

| COMPOUND | ASSAYED_TARGET | QUALITATIVE_LABEL |
| --- | --- | --- |
| O=c1[nH]c2ccccc2n1C1CCN(CCCC(c2ccc(F)cc2)c2ccc(F)cc2)CC1 [Pimozide] + Cc1nc(Nc2ncc(C(=O)Nc3c(C)cccc3Cl)s2)cc(N2CCN(CCO)CC2)n1 [Dasatinib] (partner 0.075 µM) | NCI-H460 | Condition not met |
| O=c1[nH]c2ccccc2n1C1CCN(CCCC(c2ccc(F)cc2)c2ccc(F)cc2)CC1 [Pimozide] + CCNC(=O)c1noc(-c2cc(C(C)C)c(O)cc2O)c1-c1ccc(CN2CCOCC2)cc1 [Luminespib] (partner 0.01 µM) | NCI-H460 | Condition met |
| Cc1cnc(-c2cnc(NCCNc3ccc(C#N)cn3)nc2-c2ccc(Cl)cc2Cl)[nH]1 + C[C@@H](Oc1cc(-c2cnn(C3CCNCC3)c2)cnc1N)c1c(Cl)ccc(F)c1Cl [Crizotinib] (partner 1 µM) | NCI-H460 | Condition not met |
| O=c1[nH]c2ccccc2n1C1CCN(CCCC(c2ccc(F)cc2)c2ccc(F)cc2)CC1 [Pimozide] + CS(=O)(=O)N1CCN(Cc2cc3nc(-c4cccc5[nH]ncc45)nc(N4CCOCC4)c3s2)CC1 [Pictilisib] (partner 1 µM) | NCI-H460 | Condition met |

* * *

Here the recorded relative viability is given for each entry.
- Tested on: LC-2-ad
- EXPERIMENT_SUMMARY: relative viability (nuclei count vs DMSO), 5 days (fraction); higher = more cells survive
- MEASUREMENT_PARAMETERS: first compound 0.04 µM
ASSAY_METRIC: relative viability

| COMPOUND | MEAS_VALUE |
| --- | --- |
| Cc1sc2c(c1C)C(c1ccc(Cl)cc1)=N[C@@H](CC(=O)OC(C)(C)C)c1nnc(C)n1-2 [JQ1] + Cc1nc(NC(=O)N2CCC[C@H]2C(N)=O)sc1-c1ccnc(C(C)(C)C(F)(F)F)c1 [Alpelisib] (partner 2 µM) | 0.953 |
| Cc1sc2c(c1C)C(c1ccc(Cl)cc1)=N[C@@H](CC(=O)OC(C)(C)C)c1nnc(C)n1-2 [JQ1] + O=C(c1cc(Cc2n[nH]c(=O)c3ccccc23)ccc1F)N1CCN(C(=O)C2CC2)CC1 [Olaparib] (partner 8 µM) | 0.701 |
| Cc1sc2c(c1C)C(c1ccc(Cl)cc1)=N[C@@H](CC(=O)OC(C)(C)C)c1nnc(C)n1-2 [JQ1] + CCNC(=O)c1noc(-c2cc(C(C)C)c(O)cc2O)c1-c1ccc(CN2CCOCC2)cc1 [Luminespib] (partner 0.01 µM) | 0.892 |
| Cc1sc2c(c1C)C(c1ccc(Cl)cc1)=N[C@@H](CC(=O)OC(C)(C)C)c1nnc(C)n1-2 [JQ1] + Nc1ncn([C@H]2C[C@H](O)[C@@H](CO)O2)c(=O)n1 [Decitabine] (partner 2 µM) | 0.754 |
| Cc1sc2c(c1C)C(c1ccc(Cl)cc1)=N[C@@H](CC(=O)OC(C)(C)C)c1nnc(C)n1-2 [JQ1] + C[C@]1(O)C[C@@H](c2nc(-c3ccc4ccc(-c5ccccc5)nc4c3)c3c(N)nccn32)C1 [Linsitinib] (partner 1 µM) | 0.753 |
| Cc1sc2c(c1C)C(c1ccc(Cl)cc1)=N[C@@H](CC(=O)OC(C)(C)C)c1nnc(C)n1-2 [JQ1] + COc1cc2c(Oc3ccc(NC(=O)C4(C(=O)Nc5ccc(F)cc5)CC4)cc3F)ccnc2cc1OCCCN1CCOCC1 [Foretinib] (partner 0.25 µM) | 0.809 |
